Measurement notes: NCI Yeast Anticancer Drug Screen. Data for the rad14 strain (AID 159);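 also: 0% = growth of vehicle-treated control cultures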
Run parameters: S. cerevisiae rad14 strain growth inhibition; at 33.0 µM; stronger effect = higher value
Compounds without any hit were thinned out: in the full panel of roughly 79,000, 15% have a hit.
Threshold rule: growth inhibition greater than or equal to 20% is satisfied; below that, not satisfied.

In plain terms: is recorded growth inhibition at least 20% for CCCCCCCCCCCCCCCCNC(=O)/C(=C\c1ccc(Cl)c(Cl)c1)NC(=O)c1ccccc1 ?
not satisfied

Moving on to the next molecule: Cc1cc(N=C2C=CC(=[N+](C)C)C=C2)c(N)cc1N
satisfied

Cool, now CCCCOC(=O)CSSCC(=O)OCCCC
satisfied

Another: CCOC(=O)C1=C(C)NC(C)=C(C(=O)OCC)C1c1ccc(C)cc1
satisfied

N#CC(=C1C=CC(=NO)C=C1)c1ccccc1 ?
satisfied

* * *

Record form. Attribute: growth inhibition. Fill in for each entry.
Measurement notes: NCI Yeast Anticancer Drug Screen. Data for the rad50 strain (AID 155);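 also: 0% = growth of vehicle-only cultures of the same strain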
Run parameters: S. cerevisiae rad50 strain growth inhibition; at 5.0 µM (retest, dose inferred, filed as 0.5); stronger effect = higher value
This is part of a sample that, as a whole, favours compounds with a hit. Of some 79,000 tested, about 15% had one in any assay.
Report as a plain number; the unit % is understood.

Could you share which growth inhibition value was measured for O=C1C=CC(=Nc2ccccc2)c2ccccc21 ?
-8

For O=C1c2c(O)cccc2-c2nn(CCNCCO)c3ccc(NCCNCCO)c1c23 then?
27

Another compound: COc1ccc(N2C(=O)CC(Cl)C2=O)cc1 (configuration not stated)
-128

Would you kindly repeat that for Cc1ccc2c(ccc(/C=C/c3ccc(O)c4ncccc34)[n+]2C)c1 ?
40

# iterate: Oc1ccc(Br)cc1C=NC1CCCCC1
44

Check CC(=O)[C@]1(O)Cc2c(O)c3c(c(O)c2[C@@H](OC2CC(N)C(O)C(C)O2)C1)C(=O)c1c(OCc2ccccc2)cccc1C3=O (some centres not stated) too.
9

Note, next up: Cc1cccc(/C=N/NC(=S)N(C)CCc2ccccn2)n1
16

Same for Cc1cc(C(C)(C)CC(C)(C)C)cc(O)c1O
95

Try N#CSC1CCCCNC1=O (configuration not stated) next.
-150

What about this compound? COc1ccc(N=Nc2ccc3oc(=O)c(C(=O)Nc4ccccc4)cc3c2)cc1
0

Would you mind doing Cc1ccc(I)cc1N=C=S as well?
32

Next record, please: CCC(=O)Oc1ccc(/C=N/NC(N)=S)nc1
-6

* * *

Measurement notes: NCI Yeast Anticancer Drug Screen. Data for the cln2 rad14 strain (AID 165);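 also: 0% = growth equal to vehicle treated cultures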
Run parameters: S. cerevisiae cln2 rad14 strain, at 5.0 µM (retest, dose inferred, filed as 0.5), stronger effect = higher value
Experimental: Growth inhibition of yeast strains with defined genetic alterations is measured as a screen for potential anti-cancer activity. Selected strains with alterations in DNA damage repair or cell cycle control were exposed to compounds and growth inhibition was measured relative to vehicle treated controls. The strain used in this assay is cln2 rad14
The panel holds about 79,000 compounds, 15% with a hit somewhere; the sample as a whole holds those more often.
Exercise: for every item that follows, state its recorded growth inhibition.
Kindly answer with a numeric value in %, unit omitted.

Item O=C(O)c1cccc2cccc(-c3c4ccc(=O)cc-4oc4cc(O)ccc34)c12 has what recorded growth inhibition?
61

What would you report for CC(=O)C1=C(O)C2(C)c3c(O)c(C)c(O)c(C(C)=O)c3OC2(Sc2ccccc2)CC1=O (stereo unspecified) ?
50

Then CCN1/C(=C/c2ccc3ccccc3[n+]2CC)C=Cc2ccccc21 ?
58

Can you check Cc1ccc(S(=O)(=O)Nc2ccc3c(c2)C(O)c2ccccc2-3)cc1 (stereo unspecified) next?
-19

Here is the next compound: COc1ccc(/C(C#N)=C/c2ccc(OC)c(OC)c2)cc1
55

Ok, now S=c1cn[nH]c2ccc(Br)cc12
-68

Another compound to check: COC(=O)/C=C1/OC(c2ccc(Br)cc2)=C(Br)C1=O
2

What about Cc1ccc(N=Nc2ccc(O)c(C)c2)cc1 ?
32

Another compound: COc1cc2c(cc1C[N+](C)(C)CSc1ccccc1)-c1ccccc1CC2
-3

Next compound up: Cc1c(-c2ccccc2)[nH]c2ccccc12
51

Another compound to look at: OB(O)c1ccccc1C#Cc1ccccc1B(O)O
9

Cited source for all entries: PubChem BioAssay (NCI)
